- target.of.assay: human S1P1 receptor (Homo sapiens, UniProt P21453)
- Construct: expressed in transfected cells; membranes used
- Sequence (P21453 whole entry): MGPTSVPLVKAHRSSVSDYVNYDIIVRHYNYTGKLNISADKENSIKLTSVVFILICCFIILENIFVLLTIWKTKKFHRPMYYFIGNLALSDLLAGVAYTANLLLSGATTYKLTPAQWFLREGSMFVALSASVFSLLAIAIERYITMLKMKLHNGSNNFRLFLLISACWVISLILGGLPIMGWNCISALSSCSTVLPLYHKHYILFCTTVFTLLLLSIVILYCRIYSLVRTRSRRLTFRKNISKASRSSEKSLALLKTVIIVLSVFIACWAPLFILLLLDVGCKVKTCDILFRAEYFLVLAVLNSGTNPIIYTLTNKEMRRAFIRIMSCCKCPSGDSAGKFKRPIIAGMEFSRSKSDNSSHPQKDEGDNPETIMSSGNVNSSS
- measurement.protocol: GTP γ35S binding assay for S1P1 activity
- Type: biochemical
- stated.conditions: intrinsic activity at 5 μM; read-out: % S1P1 STIMULATION @ 5 μM
- Procedure: Novel compounds were synthesized and tested for S1P1 activity using the GTP γ^35S binding assay. These compounds may be assessed for their ability to activate or block activation of the human S1P1 receptor in cells stably expressing the S1P1 receptor. GTP γ^35S binding was measured in the medium containing (mM) HEPES 25, pH 7.4, MgCl2 10, NaCl 100, dithitothreitol 0.5, digitonin 0.003%, 0.2 nM GTP γ^35S, and 5 μg membrane protein in a volume of 150 μl. […]
Lab note: compare Emax at 5 µM with 90%, writing Criterion met if less and Criterion not met if equal or more.

Worked examples, 5 compounds total:
test_smiles=CC(C)Oc1ccc(-c2nc(-c3ccc(Cn4ccnc4)cc3)no2)cc1Br target_of_assay="human S1P1 receptor (Homo sapiens, UniProt P21453)" answer_label="Criterion not met"
test_smiles=CC(C)COc1ccc(-c2nc(-c3ccc(Cn4ccnc4)cc3)no2)cc1C#N target_of_assay="human S1P1 receptor (Homo sapiens, UniProt P21453)" answer_label="Criterion met"
test_smiles=Cc1cc(Cn2ccnc2)ccc1-c1noc(-c2ccc(OC(C)C)c(C#N)c2)n1 target_of_assay="human S1P1 receptor (Homo sapiens, UniProt P21453)" answer_label="Criterion not met"
test_smiles=Cc1cc(-c2nc(-c3ccc(Cn4ccnc4)cc3C)no2)ccc1OC(C)C target_of_assay="human S1P1 receptor (Homo sapiens, UniProt P21453)" answer_label="Criterion not met"
test_smiles=CC(C)Oc1ccc(-c2nc(-c3ccc(Cn4ccnc4)cc3)no2)cc1C#N target_of_assay="human S1P1 receptor (Homo sapiens, UniProt P21453)" answer_label="Criterion not met"

Given the entry CC(C)Oc1ccc(-c2nc(-c3ccc(Cn4ccnc4)cc3)no2)cc1 , would its reported Emax at 5 µM be below 90%?
Criterion not met

hey, is Emax at 5 µM for Cc1cc(-c2nc(-c3ccc(Cn4ccnc4)cc3C(F)(F)F)no2)ccc1OC(C)C lower than 90% or not?
Criterion met

I'd appreciate it if you could check whether CC(C)COc1ccc(-c2nc(-c3ccc(Cn4ccnc4)cc3)no2)cc1Br has Emax at 5 µM smaller than 90%.
Criterion met

State whether 90% exceeds Emax at 5 µM recorded for CC(C)Oc1ccc(-c2nc(-c3ccc(Cn4ccnc4)cc3Cl)no2)cc1Br .
Criterion not met

# check: Emax at 5 µM < 90% for CC(C)Oc1ccc(-c2nc(-c3ccc(Cn4ccnc4)cc3C(F)(F)F)no2)cc1Br
Criterion not met

---

- target.of.assay: human S1P1 receptor (Homo sapiens, UniProt P21453)
- Construct: expressed in transfected cells; membranes used
- measurement.protocol: GTP γ35S binding assay for S1P1 activity
- Type: biochemical
- stated.conditions: intrinsic activity at 5 μM; read-out: % S1P1 STIMULATION @ 5 μM
Below: a set of entries, each annotated with reported Emax at 5 µM.
Give just the number in %; leave the unit off.

compound="CC(C)Oc1ccc(-c2nc(-c3ccc(Cn4ccnc4)cc3)no2)cc1Cl [Compound 16]" endpoint_result=99.8
compound="CC(C)Oc1ccc(-c2nc(-c3ccc(Cn4ccnc4)cc3)no2)cc1[N+](=O)[O-] [Compound 7]" endpoint_result=118
compound="Brc1cc(-c2nc(-c3ccc(Cn4ccnc4)cc3)no2)ccc1OC1CC1 [Compound 1]" endpoint_result=99.9
compound="Cc1cc(Cn2ccnc2)ccc1-c1noc(-c2ccc(OC(C)C)c(Br)c2)n1 [Compound 15]" endpoint_result=109
compound="Cc1cc(Cn2ccnc2)ccc1-c1noc(-c2ccc(OC3CC3)c(Br)c2)n1 [Compound 2]" endpoint_result=96
compound=CC(C)Oc1ccc(-c2nc(-c3ccc(Cn4ccnc4)cc3C(F)(F)F)no2)cc1C(F)(F)F endpoint_result=80.9
compound=CC(C)Oc1ccc(-c2nc(-c3ccc(Cn4ccnc4)cc3Cl)no2)cc1C#N endpoint_result=94.9

Please give the measured Emax at 5 µM for this compound: Cc1cc(Cn2ccnc2)ccc1-c1noc(-c2ccc(OC(C)C)c([N+](=O)[O-])c2)n1 [Compound 19]
102

---

- target.of.assay: human S1P1 receptor (Homo sapiens, UniProt P21453)
- Construct: expressed in transfected cells; membranes used
- measurement.protocol: GTP γ35S binding assay for S1P1 activity
- Format: biochemical
- stated.conditions: intrinsic activity at 5 μM; read-out: % S1P1 STIMULATION @ 5 μM
Entries and their measured Emax at 5 µM follow.
Reply with a number, then the unit it belongs to.

GET /values?readout=Emax at 5 µM&item= CC(C)Cc1ccc(-c2nc(-c3ccc(Cn4ccnc4)cc3)no2)cc1 [Compound 10]
79.8%

Requested read-out: Emax at 5 µM. Entry: CC(C)Oc1ccc(-c2nc(-c3ccc(Cn4ccnc4)cc3C(F)(F)F)no2)cc1[N+](=O)[O-]
79.4%

Give the measured Emax at 5 µM of Cc1cc(-c2nc(-c3ccc(Cn4ccnc4)cc3)no2)ccc1OC(C)C [Compound 17] .
133%

Need Emax at 5 µM of Cc1cc(Cn2ccnc2)ccc1-c1noc(-c2ccc(OC(C)C)c(C(F)(F)F)c2)n1 [Compound 6] , thanks.
95.5%

---

- target.of.assay: human S1P1 receptor (Homo sapiens, UniProt P21453)
- Construct: membranes used
- measurement.protocol: GTP γ35S binding assay for S1P1 activity
- stated.conditions: membranes of cells stably expressing S1P1; test concentrations 0.08 to 5,000 nM; read-out: S1P1 GTPγ^35S EC50
pEC50: −log10 of the molar value.
Returns one of 1.0 or 0.0; 1.0 when pEC50 is >= 8.

A selection of reference data follows.
molecule=Cc1cc(-c2nc(-c3ccc(Cn4ccnc4)cc3C)no2)ccc1OC(C)C target_of_assay="human S1P1 receptor (Homo sapiens, UniProt P21453)" answer_label=0.0
molecule=Cc1cc(Cn2ccnc2)ccc1-c1noc(-c2ccc(OC(C)C)c(C(F)(F)F)c2)n1 target_of_assay="human S1P1 receptor (Homo sapiens, UniProt P21453)" answer_label=1.0
molecule=CC(C)Oc1ccc(-c2nc(-c3ccc(Cn4ccnc4)cc3Cl)no2)cc1C#N target_of_assay="human S1P1 receptor (Homo sapiens, UniProt P21453)" answer_label=1.0
molecule=CC(C)COc1ccc(-c2nc(-c3ccc(Cn4ccnc4)cc3)no2)cc1C(F)(F)F target_of_assay="human S1P1 receptor (Homo sapiens, UniProt P21453)" answer_label=0.0
molecule=FC(F)(F)c1cc(Cn2ccnc2)ccc1-c1noc(-c2ccc(OC3CC3)c(Br)c2)n1 target_of_assay="human S1P1 receptor (Homo sapiens, UniProt P21453)" answer_label=0.0
molecule=CC(C)Oc1ccc(-c2nc(-c3ccc(Cn4ccnc4)cc3Cl)no2)cc1Br target_of_assay="human S1P1 receptor (Homo sapiens, UniProt P21453)" answer_label=0.0

Does the reported pEC50 for CC1CCCCN1c1ccc(-c2nc(-c3ccc(Cn4ccnc4)cc3)no2)cc1C#N (stereo not drawn) fall at or above the 8 mark?
0.0

// inclusive: pEC50 at least 8? input: CC(C)Oc1ccc(-c2nc(-c3ccc(Cn4ccnc4)cc3Cl)no2)cc1C(F)(F)F
1.0
